The origin of these recorded values is PubChem BioAssay (NCI).

System: K-562 leukemia
Test: NCI-60 one-dose screen, 48 h
Conditions: 10 µM unless noted
The panel holds about 83,000 compounds, 20% with a hit somewhere; the sample as a whole holds those more often. The source made the active and inactive calls. Rule for the calls: active = growth percent below 10; inactive = the rest.
Labels: active, inactive

- compound: "NC1(C(=O)N[C@@H](CCO)c2ccc(Cl)cc2)CCN(c2ncnc3[nH]ccc23)CC1"
  class: "inactive"
- compound: "COC(=O)[C@]12CC[C@@H](C)[C@H](C)[C@@H]1C1=CC[C@@H]3[C@@]4(C)C(C=O)=C[C@@](C)(COS(C)(=O)=O)C4=CC[C@@]3(C)[C@]1(C)CC2"
  class: "active"
- compound: "Cc1ccc(-[n+]2c3cc(N)c(C)cc3nc3cc(C)c(Nc4ccccc4)cc32)cc1"
  class: "active"
- compound: "CC(=O)Nc1cccc(-n2c(=O)n(C3CC3)c(=O)c3c(Nc4ccc(I)cc4F)n(C)c(=O)c(C)c32)c1"
  class: "inactive"
- compound: "Cc1ccc(NC(=O)c2ccc(CN3CCN(C)CC3)cc2)cc1Nc1nc(-c2cccnc2)cs1"
  class: "active"
- compound: "N#Cc1c(-c2ccc(C(F)(F)F)cc2)c(F)c(NCCC2CCC(O)C2)n2c1nc1ccccc12 (configuration not stated)"
  class: "inactive"
- compound: "C=CC(=O)Nc1cc2c(Nc3ccc(F)c(Cl)c3)ncnc2cc1C#CC(C)(C)N1CCN(C)CC1"
  class: "active"
- compound: "NC(=O)Nc1cc(-c2cccc(F)c2)sc1C(=O)N[C@H]1CCCNC1"
  class: "active"
- compound: "CC[C@H](Nc1ncnc2nc[nH]c12)c1nc2cccc(F)c2c(=O)n1-c1ccccc1"
  class: "inactive"
- compound: "C[C@@H](NC(=O)c1ncnc(N)c1Cl)c1ncc(C(=O)Nc2cc(C(F)(F)F)c(Cl)cn2)s1"
  class: "inactive"
- compound: "Cc1c(NC(=O)OC[C@@H]2COCCN2)cn2ncnc(Nc3ccc4c(cnn4Cc4cccc(F)c4)c3)c12"
  class: "inactive"
- compound: "C=CCN(/C=C1/C(=O)O[C@H](COC)[C@@]2(C)C1=C(O)C(=O)C1=C2[C@H](OC(C)=O)C[C@]2(C)C(=O)CC[C@@H]12)CC=C"
  class: "inactive"
- compound: "CCN1/C(=C/C=C/c2n(-c3ccccc3)c3ccc(-c4nc5ccccc5s4)cc3[n+]2CC)N(c2ccccc2)c2ccc(-c3nc4ccccc4s3)cc21"
  class: "inactive"
- compound: "CCc1cc2c(cc1N1CCC(N3CCOCC3)CC1)C(C)(C)c1[nH]c3cc(C#N)ccc3c1C2=O"
  class: "active"
- compound: "FC(F)(F)c1ccc(CNc2ccc(Cc3c[nH]c4ncc(Cl)cc34)cn2)cn1"
  class: "inactive"
- compound: "Cc1cccc(C)c1N1C(c2ccccc2)=NNC12C=CC(=O)c1c(O)cccc12 (configuration not stated)"
  class: "inactive"
- compound: "O=C1CC(c2cccc(F)c2)c2c(n[nH]c2-c2ccc(Cl)cc2)N1 (configuration not stated)"
  class: "inactive"
- compound: "CCCCOc1nc2cc(Cl)ccc2cc1/C=C/c1cc(/C=C/c2cc3ccc(Cl)cc3nc2OCCCC)n(-c2ccccc2)n1"
  class: "inactive"
- compound: "CC1(O)CCC(Nc2cc(-c3ccc(C(F)(F)F)cc3)c(C#N)c3nc4ccccc4n23)CC1 (configuration not stated)"
  class: "inactive"
- compound: "NC(=O)c1n[nH]n2c1nc(=O)c1c3c(sc12)CCCC3"
  class: "inactive"
- compound: "O=C1CSC(c2c(F)cccc2Cl)N1NC(=O)C(O)(c1ccccc1)c1ccccc1 (configuration not stated)"
  class: "inactive"
- compound: "CCN(CC)Cc1cc(Nc2cc(C(F)(F)F)c(C#N)c3nc4ccccc4n23)ccc1O"
  class: "inactive"
- compound: "O=S1(=O)OC(c2cc(Cl)c(O)c(Br)c2)(c2cc(Cl)c(O)c(Br)c2)c2ccccc21"
  class: "inactive"
- compound: "CNc1ncc2cc(-c3cc(NC(=O)NCCC(C)(C)C)c(F)cc3C)c(C)nc2n1"
  class: "active"
- compound: "c1ccc2c(c1)CCN(NCCN1CCCC1)C2"
  class: "inactive"
- compound: "CN(C)CCOC(=O)Nc1nc2ccc(Sc3ccccc3)cc2[nH]1"
  class: "inactive"
- compound: "Cc1nc2ccc(-n3ncc(C(=O)c4cc5ccccc5[nH]4)c3N)cc2[nH]1"
  class: "inactive"
- compound: "CCc1nc2ccc(Cc3ccc(C(=O)NO)cc3)cc2c(=O)n1CCc1ccccc1"
  class: "active"
- compound: "Cc1cc(N(CCNc2ccnc3cc(Cl)ccc23)Cc2ccc3c(c2)OCO3)nc(N2CCN(C)CC2)n1"
  class: "active"
- compound: "O=C1CCC(=O)CC1"
  class: "inactive"
- compound: "Cc1cc(N(CCNc2ccnc3cc(Cl)ccc23)Cc2cccs2)nc(Cl)n1"
  class: "active"
- compound: "C=CC(=O)Nc1cccc(Nc2nc(Nc3ccc(N4CCN(C(C)=O)CC4)cc3OC)ncc2C(F)(F)F)c1"
  class: "inactive"
